# Assay notes: gradient 5% acetonitrile 3 min, to 50% in 2 min, to 85% in 15 min, held 3 min, 100 µL/min
# Stated conditions: column: Zorbax Extend-C18 2.1 x 50 mm; eluents: water / acetonitrile, 0.1% formic acid
// map RP-LC retention time onto a label; ranges low (below 700 s), middle (700 s to below 900 s), high (900 s or more)

Q) Which class does CCC(C)NS(=O)(=O)c1ccc(-c2n[nH]c(C)c2C)o1 (stereo not drawn) fall in?
A) middle

Q) Which class does Cn1c(C(=O)N2CCN(c3ncccn3)CC2)cc2c(-c3cccs3)nn(-c3ccccc3)c21 fall in?
A) high

Q) Which class does CN1CC(=O)N(CC(=O)N2CCN(c3ccc(Cl)cc3)CC2)c2ccccc2C1=O fall in?
A) middle

Q) Which class does O=C(O)c1nnn(-c2ccc(F)cc2)c1-c1cccnc1 fall in?
A) low

Q) Which class does CCC(C)NC(=O)c1ccc2ncnc(N3CCCCC3)c2c1 (stereo not drawn) fall in?
A) low

Q) Which class does O=C(CN1CCN(Cc2ccc(F)cc2Cl)C1=O)NCCCc1ccccc1 fall in?
A) high

Q) Which class does O=C(NC1CCS(=O)(=O)C1)c1ccc(C(=O)c2ccccc2)cc1 (stereo not drawn) fall in?
A) low

Q) Which class does Cc1ccc(CN2C(=O)C3(CCOCC3)CC2c2nnnn2C(C)(C)C)cc1C (stereo not drawn) fall in?
A) middle

Q) Which class does CCn1cc(-c2nc(C)c(C(=O)NCc3ccc(C)cc3)s2)c2cccnc21 fall in?
A) high

Q) Which class does Cc1csc(-c2cc(S(=O)(=O)NCCCN3CCCc4ccccc43)c(C)s2)n1 fall in?
A) high

Q) Which class does CN1C(=O)c2cc(C(=O)Nc3cccc(F)c3)nn2CC1(C)C(=O)NC1CCCCCC1 (stereo not drawn) fall in?
A) middle

Q) Which class does CCc1nc(-c2csc(S(=O)(=O)N3CCC(C(=O)Nc4ccccc4CC)CC3)c2)no1 fall in?
A) high

Q) Which class does CCCNC(=O)N1CC(Oc2cccc(-c3nc(C)no3)c2)C1 fall in?
A) middle

Q) Which class does O=C(NCCOc1ccc(F)cc1)c1cc(-c2cccs2)n(C2CCS(=O)(=O)C2)n1 (stereo not drawn) fall in?
A) middle

Q) Which class does O=C(CN1CCC(COCc2ccccc2)CC1)Nc1ccc2c(c1)OCCO2 fall in?
A) low

Q) Which class does COc1ccc(OC)c(NC(=O)N2C[C@@H](F)C[C@H]2C(=O)N2CCc3ccccc3C2)c1 fall in?
A) middle

Q) Which class does CSc1ccc(NC(=O)N2CCC(c3nc(C(=O)N4CCOCC4)c(C)o3)CC2)cc1 fall in?
A) middle

Q) Which class does COc1ccc(-c2csc(NC(=O)CCCc3nc(-c4ccccc4Cl)no3)n2)cc1 fall in?
A) high

Q) Which class does Cc1ccc(NC(=O)Cn2nc3cc(-c4ccccc4)nc(C)n3c2=O)cc1F fall in?
A) high

Q) Which class does CCCCC(=O)N(CCC)CCC fall in?
A) high

Q) Which class does COc1ncc(C(=O)Nc2cc(C)ccc2C)c(C)n1 fall in?
A) middle

Q) Which class does CN1C(=O)c2cccn2CC1CNC(=O)c1ccnn1C (stereo not drawn) fall in?
A) low

Q) Which class does O=C(Nc1cc(-c2ccccn2)no1)c1nccc2ccccc12 fall in?
A) high

Q) Which class does O=C(NCc1ccc(F)cc1Cl)c1csc(C(=O)NC2CCCC2)n1 fall in?
A) high

Q) Which class does Cc1sc(-c2noc(C3CCC3)n2)cc1NC(=O)c1ccc(C(F)(F)F)cc1 fall in?
A) high

Q) Which class does Cc1ccc2nc3sc(C(=O)Nc4c(C)n(C)n(-c5ccccc5)c4=O)cc3c(=O)n2c1 fall in?
A) low

Q) Which class does O=C(Cn1c(=O)c2cc(C3CC3)nn2c2ncccc21)NCc1ccc(Cl)cc1 fall in?
A) middle

Q) Which class does CC(C)(C)c1ccc(-c2nc(NCCCN3CCOCC3)c3ccccc3n2)cc1 fall in?
A) low

Q) Which class does O=C(/C=C/c1ccccc1)NC(NC(=S)Nc1cccc2cccnc12)C(Cl)(Cl)Cl (stereo not drawn) fall in?
A) high

Q) Which class does N[C@@H]1CCCN(c2c(/C=C3\SC(=O)NC3=O)cccc2-c2ccccc2)C1 fall in?
A) middle

Q) Which class does CCOC(=O)c1c(C)n(C)c2ccc(OCC(O)CN3CCOCC3)cc12 (stereo not drawn) fall in?
A) low
